Data origin: ChEMBL document CHEMBL1132137

Test system: Vero
Test: Cytotoxicity on the vero cell culture infected with mL and was determined as reduction in protein content by the Lowry test
Format: functional, Chlorocebus sabaeus
Design: unit not given here
We label by threshold. Values of Cytotoxicity strictly beneath 500 are Fulfilled. Values of 500 and up are Not fulfilled.

Illustrative cases are given below, each with its answer.
- chemical-string: "O=[N+]([O-])c1ccccc1S(=O)(=O)n1c(CCc2ccccn2)nc2ccccc21"
  qualitative-label: "Not fulfilled"
- chemical-string: "O=[N+]([O-])c1ccc(S(=O)(=O)n2c(Sc3ncccc3[N+](=O)[O-])nc3cc(Cl)c(Cl)cc32)cc1"
  qualitative-label: "Fulfilled"

Consider now this further molecule.
query: Hello, I'm reviewing records and need to know if Cytotoxicity of `O=[N+]([O-])c1ccc(S(=O)(=O)n2c(SCc3ccccn3)nc3cc(Cl)c(Cl)cc32)cc1` is below 500. Could you check?
result: Not fulfilled

###

Test system: Vero
Experiment: Cytotoxicity on the vero cell culture infected with mL and was determined as reduction in protein content by the Lowry test
Type: functional, Chlorocebus sabaeus
Task for the reader: assign each of the following compounds its reported Cytotoxicity.
One number for each entry.

- chemical-string: "N=C(N)N"
  Cytotoxicity: 825.7
- chemical-string: "O=[N+]([O-])c1ccc(S(=O)(=O)n2c(SCc3ccccn3)nc3ccccc32)cc1"
  Cytotoxicity: 744.3

We next turn to a different compound, shown below.
query: Reported Cytotoxicity for `O=[N+]([O-])c1ccccc1S(=O)(=O)n1c(SCc2ccccn2)nc2ccccc21` : what is it?
result: 724.1
